# key: entry, value: melting point

Some compounds with recorded melting point:
Cc1cccc(NC(c2cccc(O)c2)c2ccc3cccnc3c2O)n1 (stereo not given) | 187 to 189 °C
CCOCOCCCOn1cnc2cnc(N)nc21 | 73 to 74 °C
COCOc1cc(OC)c(OC)cc1C#Cc1ccc(OC)c(OC)c1 | 84 to 86 °C
O=C(c1ccccc1)c1cc2c(cc1O)C(CO)(C(=O)O)CC2 (stereo not given) | 104 to 110 °C

// query melting point value for entry Oc1ccc2cc(Oc3c(Cl)cc(C(F)(F)F)cc3Cl)ccc2c1
158 °C

###

VALUE KIND: melting point

COC(=O)C(Cl)=C(NC1CC1)C(C(=O)OC)C(=O)C(F)F (stereo unspecified) | 55 to 57 °C
CCNc1nc(C)c(-c2ccnc(Nc3ccc(N4CCOCC4)c(Cl)c3)n2)s1 | 273 to 274 °C
Cc1ccc(C)n1C1=CC2=C(CC1)CCc1[nH]c(=O)c(=O)n(OCC(=O)O)c12 | > 260 °C
O=C(O)CCCCC(=O)NC1C=CCCCC1 (stereo unspecified) | 132 to 133 °C
CN(C)C(=O)Nc1ccc(SCCc2ccccc2)c(Cl)c1 | 133 to 134 °C
O=C(NC1CCCCC1)c1ccc2nonc2c1 | 172 to 173 °C
COC(=O)CCCc1cc2cc(Cl)ccc2n1S(=O)(=O)c1ccc(N)c(N)c1 | 158 to 160 °C
O=C(Nc1nccs1)C(CC1CCCC1)c1ccc([N+](=O)[O-])cc1 (stereo unspecified) | 134 to 136 °C

// query melting point value for entry CCCCCCCCCCCCc1ccc(CCC(COC(C)=O)(COC(C)=O)NC(C)=O)cc1
111 to 113 °C

// query melting point value for entry COc1ccc([N+](=O)[O-])cc1CN1CCC(=O)C(C(c2ccccc2)c2ccccc2)C1 (stereo unspecified)
119 to 120 °C

// query melting point value for entry O=C1CCC(c2ccccc2)(c2ccccc2)[C@@H]2CN(C(=O)CC3=CSCSC3)C[C@H]12 (racemic)
211 °C

// query melting point value for entry CCN(CC)CCC(N)=NO
52 to 54 °C

// query melting point value for entry CC1Cc2cc3c(cc2C(c2ccc([N+](=O)[O-])cc2)=NN1C(N)=S)OCO3 (stereo unspecified)
213 to 215 °C

// query melting point value for entry N=C(N)c1ccc(C(=O)N[C@@H](Cc2cc(I)c(O)c(I)c2)C(=O)N2CCC(OCC(=O)O)CC2)cc1
220 to 221 °C

// query melting point value for entry Cc1ccc2c3[nH]nc(Cc4ccccc4)c3c(=O)n(-c3ccccc3)c2n1
300 to 302 °C

// query melting point value for entry N#Cc1cc(F)c(N=C=S)cc1O
178 to 180 °C

// query melting point value for entry O=S(=O)(C=Cc1ccc(F)cc1)Oc1ccccc1
108 °C

// query melting point value for entry Nc1cc(C(=O)O)cc(OCc2ccsc2)c1-c1ccccc1
139 to 140 °C

// query melting point value for entry COc1ccc(C(CN(C)C)C2(O)CCCCC2)cc1 (stereo unspecified)
78.3 to 79.5 °C

// query melting point value for entry Cc1c(-c2ccc(F)cc2)c(-c2ccccc2)nn1C(C)C
135 to 137 °C

// query melting point value for entry COC1=CC2=CCC3C(=CCC4(C)C(=O)CCC34)C2(C)CC1 (stereo unspecified)
153 °C

###

# key: entry, value: melting point

Some compounds with recorded melting point:
FC(F)(F)c1ccc(Cl)c(CN2CCNc3ncc(I)cc32)c1 | 120 to 125 °C
CC1Oc2c(cc(CN3CCN(c4ccc(C#N)cc4)CC3)cc2C2CC2)NC1=O (stereo unspecified) | 194 to 196 °C
CCc1ccc(N/C=C/[N+](=O)[O-])c(C(=O)O)c1 | 190 to 191 °C
CN(CCCCc1ccccc1)CCCc1ccccc1 | 81 to 83 °C
O=C(O)CC(O)c1ccc(-c2ccccc2Cl)o1 (stereo unspecified) | 53 to 55 °C

// query melting point value for entry NCCCOc1ccc(-c2ncc3c(=O)[nH][nH]c(=O)c3c2O)cc1
> 300 °C

// query melting point value for entry COc1ccc2c(c1OC)CC(c1ccccc1)CC2=O (stereo unspecified)
127 to 128 °C

// query melting point value for entry COc1ccc2cc(C=O)ccc2c1Br
133 to 135 °C

// query melting point value for entry CCOC(=O)C(C)(C)Oc1ccc(-c2ccc(CCNC(=O)Cc3ccccc3)cc2)cc1
< 20 °C

// query melting point value for entry COc1ccc(C2=NN(C(=O)c3cccnc3)CC2)c(OC)c1
112 to 113 °C

// query melting point value for entry CCOC(=O)COc1ccc(OCc2ccccc2)cc1
65 to 68 °C

###

VALUE KIND: melting point (°C)

COc1ccc(NC(=O)C2CCc3c(OCc4ccccc4)cccc32)c(OC)c1 (stereo not given) | 130
COc1cc(OC)c([N+](=O)[O-])c(OC)c1NC(=O)OCCCl | 133

###

VALUE KIND: melting point

CCc1ccc(Nc2c(F)c(F)cc(F)c2F)c(CC(=O)OC(C)(C)C(=O)O)c1 | 104 to 108 °C
CC(=O)c1ccc(C(C)Oc2cncc(C(=O)Nc3ccc(C#N)cc3)c2)cc1 (stereo unspecified) | 181 to 183 °C
O=C(c1cccs1)c1cnn2c(-c3cccc(-c4nnn[nH]4)c3)ccnc12 | 290 °C
C=CCOc1ccc2nc(OCC=C(C)C)ccc2c1 | 53 to 54 °C
O=c1ccc2ccc(OCCCCN3CCN(c4cccc5cc(Cl)ccc45)CC3)nc2[nH]1 | 208 to 209 °C
Cc1nccn1Cc1ccc(N)cc1C(F)(F)F | 146 to 147 °C

// query melting point value for entry COc1ccc(C2CCN(C)CC2)cc1Nc1ncc2ccc(-c3ccccc3N(C)S(C)(=O)=O)n2n1
93 to 99 °C

// query melting point value for entry COC(=O)c1cccc([N+](=O)[O-])c1C(=O)O
166 to 168 °C

// query melting point value for entry O=C(O)CCCCCc1nc2c(F)c(F)cc(F)c2s1
84 to 86 °C

// query melting point value for entry CON=C(C)c1cc(C#N)c(=O)[nH]c1C
275 to 285 °C

###

# key: entry, value: melting point

// query melting point value for entry Cc1nc(C(F)(F)F)ccc1C(Cl)=C1C(=O)C(C)(C)C(=O)C(C)(C)C1=O
92.5 to 93 °C

###

# key: entry, value: melting point

// query melting point value for entry Cc1nc(S(=O)(=O)CC(N)=O)nc(C)c1Br
175 to 177 °C

// query melting point value for entry COc1ccc(C(=O)CCCCc2ccccc2)cc1OC
56 to 58 °C

// query melting point value for entry CNC(=O)c1ccc(-c2nn(Cc3ccccc3)c3ccccc23)o1
182 to 183 °C

// query melting point value for entry O=[N+]([O-])c1ccc(CN2CCNCCNCCNCC2)cc1
128 to 129 °C

// query melting point value for entry CCCCCCCCCCCCCCc1ccc(C(=O)CCCCC)c(O)c1
44 to 45 °C

// query melting point value for entry COC(=O)CSCCn1cc(C)c(=O)[nH]c1=O
75 °C

// query melting point value for entry Oc1ccccc1OCCCN1CCC(=C(c2ccc(F)cc2)c2ccc(F)cc2)CC1
125 to 127 °C

// query melting point value for entry Oc1nc2ccccc2c(O)c1O
> 250 °C

// query melting point value for entry Nc1ccc(F)c(F)c1NC(=S)Nc1c(Cl)cccc1Cl
> 310 °C

// query melting point value for entry O=c1oc2ccccc2c(O)c1CCC(O)c1ccccc1 (stereo unspecified)
138 to 140 °C

// query melting point value for entry COc1cc(Nc2ncc(C#N)c(-c3ccccc3)n2)cc(OC)c1OC
98 °C

###

# key: entry, value: melting point

CCc1nn(C2CCCC2)c2cc(C3=NOC(C)(c4noc(-c5cc(OC)cc(OC)c5)n4)C3)ccc12 (stereo unspecified) | 154 to 155 °C
NCC1Cc2cc(-c3ccccc3F)cc(F)c2O1 (stereo unspecified) | > 250 °C
N=C(Nc1cc(Cl)cc(NC(=O)/C=C/c2ccccc2Cl)c1)c1ccccc1 | 105 to 115 °C
CC(=O)Nc1ccc(NC(=O)C=C2CC(C(=O)OCc3ccccc3)Nc3cc(Cl)cc(Cl)c32)cc1 (racemic) | 275 °C
Oc1cc(Cl)c(Br)c(Cl)c1 | 118 to 120 °C

// query melting point value for entry O=C(NC1CCCCC1)N[C@H]1C[C@H](C(=O)O)Nc2cc(Cl)cc(Cl)c21 (relative stereo)
217 to 219 °C

// query melting point value for entry CC1(c2ccc3cc(C(O)c4cccnc4)ccc3c2)OCCO1 (stereo unspecified)
154 to 156 °C

// query melting point value for entry O=S1(=O)c2ccccc2NC2CCCN21 (stereo unspecified)
149 to 154 °C

// query melting point value for entry O=C(O)CCCCCCCn1c(-c2cc(I)c(O)c(I)c2)nc(-c2ccccc2)c1-c1ccccc1
186 °C

// query melting point value for entry O=C1NC(=O)C(c2ccc(Oc3ccc(Cl)cc3)cc2)(N2CCN(CC(O)CO)CC2)C(=O)N1 (stereo unspecified)
257 to 258 °C

// query melting point value for entry COC1=CC2SC2C2(OC)SC12OC (stereo unspecified)
143 to 144 °C
